Here the recorded reverse-splicing fitness is given for each entry.
B1: Azoarcus group I ribozyme (parent)
chain: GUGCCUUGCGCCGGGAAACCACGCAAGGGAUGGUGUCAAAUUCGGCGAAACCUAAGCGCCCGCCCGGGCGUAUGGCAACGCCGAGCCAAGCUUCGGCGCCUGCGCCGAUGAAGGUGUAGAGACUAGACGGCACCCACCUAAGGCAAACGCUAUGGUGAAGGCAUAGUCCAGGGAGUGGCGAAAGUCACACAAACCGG

- Variants of: B1
- experiment-summary: reverse-splicing fitness (ratio to wild type); higher = more active; in vitro selection; Mg2+ level not given
Field format: numeric only.

Here is how some variants turned out for reverse-splicing fitness.
mutation-name	reverse-splicing fitness
A111G A120G A145C C150A C169A U176C	0.00695
C82U A111U A120G A145G C150A C169G U176C	0.0253

Now look at this entry.
Exam item: // query reverse-splicing fitness value for entry C82A A111G A120U A145C C150G U176C
Marked response: 0.00393
